Source: the supplement of paper PMC7877785

Experiment: self-splicing fitness, log relative to wild type (ln ratio); higher = more splicing; Tetrahymena group I intron in knt gene, E. coli kanamycin selection, DiMSum; sequences stand for … in CUCUCU…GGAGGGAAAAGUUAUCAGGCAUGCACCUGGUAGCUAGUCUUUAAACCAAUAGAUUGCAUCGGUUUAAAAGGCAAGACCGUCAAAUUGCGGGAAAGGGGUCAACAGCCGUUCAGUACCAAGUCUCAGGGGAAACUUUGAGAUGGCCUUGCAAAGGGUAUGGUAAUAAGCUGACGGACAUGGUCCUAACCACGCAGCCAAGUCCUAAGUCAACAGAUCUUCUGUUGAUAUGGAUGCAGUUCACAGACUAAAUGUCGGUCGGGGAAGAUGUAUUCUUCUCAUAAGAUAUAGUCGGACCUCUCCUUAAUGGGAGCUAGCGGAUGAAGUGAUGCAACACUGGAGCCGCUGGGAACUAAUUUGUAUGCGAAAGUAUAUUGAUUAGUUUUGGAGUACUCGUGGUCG;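 note: selection with 25 µg/mL kanamycin versus none on LB agar overnight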
Conditions: 30 °C
Tag: satisfied if measured self-splicing fitness (ln) is not below -3, not satisfied if it is.

Threshold query (self-splicing fitness (ln) >= -3) on CAAUAGCAAUAUUACGUCGG satisfied

Threshold query (self-splicing fitness (ln) >= -3) on UUGUAGCAAUAUUACGCCUU satisfied

Threshold query (self-splicing fitness (ln) >= -3) on UCAGAGCAAUAUUACGGGGU not satisfied

Threshold query (self-splicing fitness (ln) >= -3) on UAGCAGCAAUAUUACGUGAG satisfied

Threshold query (self-splicing fitness (ln) >= -3) on AUAUAGCAAUAUUACGUUGU not satisfied
